Target chain: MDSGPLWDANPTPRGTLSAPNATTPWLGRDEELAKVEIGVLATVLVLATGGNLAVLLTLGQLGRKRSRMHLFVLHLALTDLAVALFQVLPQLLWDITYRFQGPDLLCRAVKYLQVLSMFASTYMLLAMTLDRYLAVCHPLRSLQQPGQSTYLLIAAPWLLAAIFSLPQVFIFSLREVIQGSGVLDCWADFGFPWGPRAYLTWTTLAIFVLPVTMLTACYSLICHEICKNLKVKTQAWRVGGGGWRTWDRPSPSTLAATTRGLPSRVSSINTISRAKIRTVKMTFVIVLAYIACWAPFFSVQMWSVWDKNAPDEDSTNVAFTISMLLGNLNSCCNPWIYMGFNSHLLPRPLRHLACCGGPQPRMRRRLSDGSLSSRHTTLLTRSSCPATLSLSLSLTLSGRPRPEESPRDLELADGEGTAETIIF
pKi: −log10 of the molar value. Counter-ions that a name gives are not always drawn.
Measured Endpoint: pKi

>>> reported_measurement("CCOc1ncccc1C1(OC(=O)N2CCN(C3CCN(C)CC3)CC2)C(=O)N(S(=O)(=O)c2ccc(OC)cc2)c2ccc(C#N)cc21 (racemic) [Example 5]")
"> 8.00"
>>> reported_measurement("CCOc1ncccc1C1(OC(=O)N2CCN(C3CCNCC3)CC2)C(=O)N(S(=O)(=O)c2ccc(OC)cc2OC)c2ccc(C#N)cc21 (racemic) [Example 25, bis(trifluoroacetic acid) salt]")
"> 8.00"
>>> reported_measurement("CCOc1ncccc1C1(OC(=O)N2CCN(C3CCNCC3)CC2)C(=O)N(S(=O)(=O)c2ccccc2)c2ccc(C#N)cc21 (racemic) [Example 28, bis(trifluoroacetic acid) salt]")
"7.30 to 8.00"
>>> reported_measurement("CCOc1ncccc1C1(OC(=O)N2CCC(N3CCNCC3)CC2)C(=O)N(S(=O)(=O)c2ccc(OC)cc2OC)c2ccc(C#N)cc21 (centres unmarked) [Example 55, bis(trifluoroacetic acid) salt]")
"> 8.00"

# ---- query molecule ----
Given item CCOc1ncccc1C1(OC(=O)N2CCC(N3CCN(C)CC3)CC2)C(=O)N(S(=O)(=O)c2ccc(OC)cc2)c2ccc(C#N)cc21 (racemic) [Example 35] , the value recorded as its pKi is > 8.00

====

Assay Remarks: Determination of the microsomal half-life / microsomal clearance (human liver microsomes)
Assay type: in vitro ADME
Condition Details: pH 7.4, 0.5 μM test substance
Experimental: 5. Determination of the Microsomal Half-Life: The metabolic stability of the compounds of the invention was determined in the following assay. The test substances were incubated in a concentration of 0.5 μM as follows: 0.5 μM test substance are preincubated together with liver microsomes from different species (from rat, human or other species) (0.25 mg of microsomal protein/ml) in 0.05 M potassium phosphate buffer of pH 7.4 in microtiter plates at 37° C. for 5 min. […]
Measured Endpoint: microsomal CLint at 0.5 μM

Consider the worked cases shown below.
>>> reported_measurement("CCOc1ncccc1C1(OC(=O)N2CCN(C3CCN(C)CC3)CC2)C(=O)N(S(=O)(=O)c2ccc(OC)cc2)c2ccc(C#N)cc21 (racemic) [Example 5]")
"75 to 200 µL/min/mg"
>>> reported_measurement("CCOc1ncccc1C1(OC(=O)N2CCN(C3CCN(C)CC3)CC2)C(=O)N(S(=O)(=O)c2ccccc2)c2ccc(C#N)cc21 (racemic) [Example 4]")
"< 50 µL/min/mg"

Given item CCOc1ncccc1C1(OC(=O)N2CCN(C3CCN(C)CC3)CC2)C(=O)N(S(=O)(=O)c2ccc(OC)cc2OC)c2ccc(C#N)cc21 (racemic) [Example 1] , the value recorded as its microsomal CLint at 0.5 μM is 75 to 200 µL/min/mg

Given item CCOc1ncccc1C1(OC(=O)N2CCN(C3CCN(C)CC3)CC2)C(=O)N(S(=O)(=O)c2ccccc2OC)c2ccc(C#N)cc21 (single isomer, unassigned; (-)) [Example 2B] , the value recorded as its microsomal CLint at 0.5 μM is 75 to 200 µL/min/mg

Given item CCOc1ncccc1C1(OC(=O)N2CCN(C3CCN(CC)CC3)CC2)C(=O)N(S(=O)(=O)c2ccccc2)c2ccc(C#N)cc21.O=C(O)C(F)(F)F (racemic) [Example 10, trifluoroacetic acid salt] , the value recorded as its microsomal CLint at 0.5 μM is < 50 µL/min/mg

Given item CCOc1ncccc1C1(OC(=O)N2CCN(C3CCN(C)CC3)CC2)C(=O)N(S(=O)(=O)c2ccccc2OC)c2ccc(C#N)cc21 (racemic) [Example 2] , the value recorded as its microsomal CLint at 0.5 μM is 75 to 200 µL/min/mg
